Here, molecules appear alongside pIC50 reported for Serine/threonine-protein kinase ATR (Homo sapiens) in the literature.
// pIC50 is dimensionless: -log10 of concentration (M)

What value of pIC50 on Serine/threonine-protein kinase ATR (Homo sapiens) does CCNc1nc2cc(F)ccc2n1-c1nc(-c2c(C)nn(C3CCNCC3)c2C(F)(F)F)cc(N2CCOC[C@H]2C)n1 have?
8.10

Follow-up item: Cc1nn(CS(C)(=O)=O)c(C)c1-c1cc(N2CCOC[C@H]2C)nc(-c2ccnc3[nH]ccc23)n1
7.96

Quick one: COc1cc(C)c(-c2cc(N3CCOC[C@H]3C)nc(-c3ccnc4[nH]ccc34)n2)cn1
7.82

Also Cc1c(-c2cc(N3CCOC[C@H]3C)nc(-c3ccnc4[nH]ccc34)n2)cnn1C , if possible.
6.91

Please do the same for Cc1cnn(C)c1-c1cc(-c2ccnc3[nH]ccc23)nc(N2CCOC[C@H]2C)n1 as well.
7.12

Also Cc1c(-c2cc(N3CCOC[C@H]3C)nc(-c3ccnc4[nH]ccc34)n2)c(C(F)(F)F)nn1C1CCCNC1 (stereo partly drawn) , if possible.
8.52

Follow-up entry: C[C@@H]1COCCN1c1cc(-c2cccc3[nH]ccc23)nc2c1ccn2S(C)(=O)=O
8.38

Also Cc1nnn(C)c1-c1cc(-c2ccnc3[nH]ccc23)nc(N2CCOC[C@H]2C)c1 , if possible.
7.38

Another molecule to check: CCn1nc(-c2cc[nH]n2)c2nc(N3CCOC[C@H]3C)cc(C(C)(C)C#N)c21
8.22

Now the molecule Cc1nn(C2CCNCC2)c(C(F)(F)F)c1-c1cc(N2CCOC[C@H]2C)nc(-n2cnc3ccccc32)n1
8.22

Likewise for C[C@@H]1COCCN1c1cc(-c2ccn[nH]2)nc2c1ccn2S(C)(=O)=O ?
6.51

Continue with Cc1c(-c2nc(-c3ccnc4[nH]ccc34)cc(N3CCOC[C@H]3C)n2)cnn1C
5.76

Ok, now C[C@@H]1COCCN1c1cc(-c2ccnn2C)nc(-c2cccc3[nH]ccc23)n1
7.14
